Value source: patent US20240391930A1

biological target: UniProt:Q15125
So I've got a bunch of molecules here, and I need their Ki values.
Numbers only, in µM.

molecule: CC(C)(C)n1nc(C(F)(F)F)nc1[C@H]1[C@@H]2C[C@H](N3CCC4(C3)CS(=O)(=O)C4)C[C@@H]21 (single isomer, unassigned)
Ki (µM): 0.0336

Record Ki for all entries; do not skip any.
1. CC(C)n1nc(C(F)(F)F)cc1[C@H]1[C@@H]2C[C@H](N3CCC4(CC3)CS(=O)(=O)C4)C[C@@H]21 (single isomer, unassigned)
2. CC(C)n1nc(-c2cncc(C(F)(F)F)c2)nc1[C@H]1[C@@H]2C[C@@H](N3CCC4(C3)CS(=O)(=O)C4)C[C@@H]21 (single isomer, unassigned)

Data returned:
0.027
0.021

* * *

Hi there, I'd appreciate the recorded pEC50 for every entry that follows.
System: EpiSC-derived OPCs
Assay: In vitro phenotypic screening of OPCs (MBP high-content imaging)
Type: cell-based
Conditions: Mus musculus, 72 h; percentage of MBP-positive oligodendrocytes, 3 days, 0.5 nM to 1000 nM; read-out: OPC EC50
Method: To assess effects of treatments on OPCs, all treatments were assayed in two or more independent platings of epiblast stem cell-derived OPCs (EpiSC). […] Cells and cell culture plates were imaged on the Operetta High Content Imaging and Analysis system (PerkinElmer). […] The peri-nuclear region of each cell was then cross-referenced with the […] (MBP) stain to identify oligodendrocyte nuclei, and from this the percentage of oligodendrocytes was calculated.
Give bare numbers, as −log10 of the molar value.

Here's what some known entries look like.
compound: CC(C)(C)n1nc(-c2cccc(C(F)(F)F)c2)nc1[C@H]1[C@@H]2C[C@@H](N3CCC4(C3)CS(=O)(=O)C4)C[C@@H]21 (single isomer, unassigned) [Compound 75]
pEC50: 8.21
--
compound: CC(C)n1nc(C(F)(F)F)cc1[C@H]1[C@@H]2C[C@H](N3CCC4(C3)CS(=O)(=O)C4)C[C@@H]21 (single isomer, unassigned) [Compound 23]
pEC50: 7.28
--
compound: CCn1nc(-c2cncc(C(F)(F)F)c2)cc1[C@H]1[C@@H]2C[C@H](N3CCC4(C3)CS(=O)(=O)C4)C[C@@H]21 (single isomer, unassigned) [Compound 25]
pEC50: 8.38
--
compound: CC(C)n1nc(-c2cncc(C(F)(F)F)c2)cc1[C@H]1[C@@H]2C[C@@H](N3CC4(C3)CS(=O)(=O)C4)C[C@@H]21 (single isomer, unassigned) [Compound 98*]
pEC50: 6.52

Now consider the entry below.
Data request: Please give measured pEC50 of the following entry: CC(C)n1nc(-c2cncc(C(F)(F)F)c2)cc1[C@H]1[C@@H]2C[C@H](N3CCC4(C3)CS(=O)(=O)C4)C[C@@H]21 (single isomer, unassigned) [Compound 4]
Data returned: 7.85

* * *

Target: human emopamil binding protein and human 7-dehydrocholesterol reductase (hEBP-DHCR7) (Homo sapiens)
Construct: expressed in transfected cells; host or cells: HEK 293 cells, transient transfection with 2 DNA constructs
Sequence (Q15125 whole entry): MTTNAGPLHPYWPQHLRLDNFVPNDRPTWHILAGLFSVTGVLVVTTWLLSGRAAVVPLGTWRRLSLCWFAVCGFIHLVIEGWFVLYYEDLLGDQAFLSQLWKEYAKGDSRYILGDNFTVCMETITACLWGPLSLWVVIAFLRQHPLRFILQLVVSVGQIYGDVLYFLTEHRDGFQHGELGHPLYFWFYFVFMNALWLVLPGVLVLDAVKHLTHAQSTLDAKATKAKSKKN
Test: hEBP-DHCR7 radioligand filtration binding assay
Details: membranes of HEK293 co-expressing hEBP and DHCR7; [3H] 2-thia-6-azaspiro[3.4]octane radioligand; 8 doses 0.06 to 5000 nM
Experimental: Membrane Preparation: human emopamil binding protein and human 7-dehydrocholesterol reductase co-expressing cells were generated by transient transfecting host human embryonic kidney (HEK) 293 cells with 2 DNA constructs containing each protein's coding sequence. Cells were suspension cultured at 37° C. with 5% CO2 in […] 293 Expression Medium (Thermofisher). […]
measureName: Ki (nM)
Numbers only, in nM.

compound: CC(C)n1nc(-c2ccnc(C(F)(F)F)n2)cc1[C@H]1[C@@H]2C[C@H](N3CCC4(C3)CS(=O)(=O)C4)C[C@@H]21
Ki (nM): 20
//
compound: O=S1(=O)CC2(CCN([C@H]3C[C@@H]4[C@H](C3)[C@H]4c3cc(C(F)(F)F)nn3CC(F)F)C2)C1 (single isomer, unassigned)
Ki (nM): 16.3

Data request: Report measured Ki; entry is CCn1nc(-c2ccccn2)cc1[C@H]1[C@@H]2C[C@@H](N3CCC4(C3)CS(=O)(=O)C4)C[C@@H]21
Data returned: 303
